- testedTarget: ~100 representative kinases (Homo sapiens, UniProt Q12866)
- Construct: Recombinant protein kinase domains with a concentration of 2 μM
- Sequence (Q12866 21-999): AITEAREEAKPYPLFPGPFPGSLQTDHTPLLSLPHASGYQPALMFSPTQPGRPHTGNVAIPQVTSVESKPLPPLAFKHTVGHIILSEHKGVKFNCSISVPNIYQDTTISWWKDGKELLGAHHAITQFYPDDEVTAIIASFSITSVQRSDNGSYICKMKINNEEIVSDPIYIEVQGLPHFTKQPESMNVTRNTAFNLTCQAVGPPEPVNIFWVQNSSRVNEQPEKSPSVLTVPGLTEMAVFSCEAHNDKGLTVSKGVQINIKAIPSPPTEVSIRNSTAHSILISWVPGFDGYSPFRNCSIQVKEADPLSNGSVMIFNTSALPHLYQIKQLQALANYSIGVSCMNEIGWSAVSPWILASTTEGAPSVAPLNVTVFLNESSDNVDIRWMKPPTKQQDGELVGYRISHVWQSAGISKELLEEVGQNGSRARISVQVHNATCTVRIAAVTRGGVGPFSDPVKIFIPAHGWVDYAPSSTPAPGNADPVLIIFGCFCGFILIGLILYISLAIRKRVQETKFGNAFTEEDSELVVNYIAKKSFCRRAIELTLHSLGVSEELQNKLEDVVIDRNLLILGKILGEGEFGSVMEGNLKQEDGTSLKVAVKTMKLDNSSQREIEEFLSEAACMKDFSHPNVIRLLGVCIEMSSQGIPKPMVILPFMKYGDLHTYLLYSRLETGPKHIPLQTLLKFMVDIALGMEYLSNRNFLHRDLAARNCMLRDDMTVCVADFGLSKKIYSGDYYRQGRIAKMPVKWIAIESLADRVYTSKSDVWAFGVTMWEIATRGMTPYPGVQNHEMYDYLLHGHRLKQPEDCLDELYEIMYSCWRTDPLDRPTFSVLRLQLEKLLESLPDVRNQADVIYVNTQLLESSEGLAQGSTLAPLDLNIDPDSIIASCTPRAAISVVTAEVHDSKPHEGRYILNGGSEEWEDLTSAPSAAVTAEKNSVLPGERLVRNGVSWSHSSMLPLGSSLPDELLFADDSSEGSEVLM
- assayInfo: DSF 100 kinase selectivity screen;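 further: compound tested at 20 µM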
- Type: binding
- assaySetup: protein MERTK; average of three replicates
I'd appreciate it if you marked entries fulfilled when dTm is lower than 2 K and not fulfilled when it is not.

Is the reported dTm for C[C@@H]1CN(c2cc(-c3n[nH]c4ccc(OC5(C)CC5)cc34)ncn2)C[C@H](C)O1 [MLi2] strictly below 2 K?
fulfilled

Next entry: Cc1cc(NC(=O)C2(C(=O)Nc3cccc(-c4c[nH]c5ncnc(N6CCOCC6)c45)c3)CC2)ccc1F [Compound 20]
not fulfilled

Try CCc1ccc(NC(=O)C2(C(=O)Nc3cccc(-c4c[nH]c5ncnc(N6CCOCC6)c45)c3)CC2)cc1 [Compound 15] next.
fulfilled

Now the compound Cc1ccc(C(=O)Nc2ccc(CN3CCN(C)CC3)c(C(F)(F)F)c2)cc1C#Cc1c[nH]c2ncnc(N3CCOCC3)c12 [Compound 1]
not fulfilled

Then what about the compound O=C(Nc1cccc(-c2c[nH]c3ncnc(N4CCOCC4)c23)c1)c1cccn(-c2ccc(F)cc2)c1=O [Compound 4] ?
not fulfilled

# iterate: Cc1cc(NC(=O)C2(C(=O)Nc3ccc(F)cc3)CC2)cc(-c2c[nH]c3ncnc(N4CCOCC4)c23)c1 [Compound 6]
fulfilled

Now give it for Cc1ccc(C(=O)Nc2ccc(CN3CCN(C)CC3)c(C(F)(F)F)c2)cc1C#Cc1cnc2cccnn12 [Ponatinib, reference compound] too.
not fulfilled

Also CC(C)(C)c1cc(NC(=O)Nc2cccc(-c3c[nH]c4ncnc(N5CCOCC5)c34)c2)n(-c2ccc3ncccc3c2)n1 [Compound 28] ?
not fulfilled

How about O=C(Nc1ccc(Cl)cc1)C1(C(=O)Nc2cccc(-c3c[nH]c4ncnc(N5CCOCC5)c34)c2)CC1 [Compound 13] ?
not fulfilled

Query Cn1cc(-c2c[nH]c3ncnc(N4CCOCC4)c23)cc1C#N [PFE-360] next
fulfilled

Note, next up: Cc1ccc(-n2nc(C(C)(C)C)cc2NC(=O)Nc2cccc(-c3c[nH]c4nc(Cl)nc(N5CCOCC5)c34)c2)cc1 [Compound 30]
fulfilled

Would you kindly repeat that for CC(C)(C)c1cccc(NC(=O)C2(C(=O)Nc3cccc(-c4c[nH]c5ncnc(N6CCOCC6)c45)c3)CC2)c1 [Compound 22] ?
not fulfilled

And COc1cc(C(=O)N2CCOCC2)c(F)cc1Nc1nc(N(C)C)c2c(Cl)c[nH]c2n1 [Compound 36] ?
fulfilled

Again, but for O=C(Nc1cccc(-c2c[nH]c3ncnc(N4CCOCC4)c23)c1)C1(C(=O)Nc2ccc(F)c(F)c2)CC1 [Compound 17]
fulfilled

Param item: O=C(Nc1cccc(-c2c[nH]c3ncnc(N4CCOCC4)c23)c1)C1(C(=O)Nc2cccc3c2CCC3)CC1 [Compound 11]
not fulfilled

Query O=C(Nc1ccc(F)cc1)C1(C(=O)Nc2cccc(-c3c[nH]c4ncnc(N5CCOCC5)c34)c2)CC1 [Compound 2] next
not fulfilled

Same question for O=C(Nc1cc(F)cc(Br)c1)C1(C(=O)Nc2cccc(-c3c[nH]c4ncnc(N5CCOCC5)c34)c2)CC1 [Compound 27] please.
fulfilled

Cool, now CCSc1nc(NC)c2c(-c3cccc(NC(=O)Nc4cc(C(C)(C)C)nn4-c4ccc(C)cc4)c3)c[nH]c2n1 [Compound 32]
fulfilled

Can you check Cc1cc(F)ccc1NC(=O)C1(C(=O)Nc2cccc(-c3c[nH]c4ncnc(N5CCOCC5)c34)c2)CC1 [Compound 24] next?
fulfilled

And the next one, COc1cc(NC(=O)C2(C(=O)Nc3cccc(-c4c[nH]c5ncnc(N6CCOCC6)c45)c3)CC2)ccc1F [Compound 21] ?
fulfilled

Same question for O=C(Nc1cccc(-c2c[nH]c3ncnc(N4CCOCC4)c23)c1)C1(C(=O)Nc2ccc(F)cc2F)CC1 [Compound 23] please.
fulfilled

Similarly, COc1cc2c(Oc3ccc(NC(=O)C4(C(=O)Nc5ccc(F)cc5)CC4)cc3F)ccnc2cc1OCCCN1CCOCC1 [Foretinib, reference compound] ?
not fulfilled

Next record, please: COc1ccc(NC(=O)C2(C(=O)Nc3cccc(-c4c[nH]c5ncnc(N6CCOCC6)c45)c3)CC2)cc1 [Compound 16]
fulfilled

Query O=C(Nc1ccccc1)C1(C(=O)Nc2cccc(-c3c[nH]c4ncnc(N5CCOCC5)c34)c2)CC1 [Compound 12] next
not fulfilled

Request: Cc1ccc(NC(=O)C2(C(=O)Nc3cccc(-c4c[nH]c5ncnc(N6CCOCC6)c45)c3)CC2)cc1 [Compound 14]
fulfilled

Now the same for Cc1ccc(C(=O)Nc2ccc(CN3CCN(C)CC3)c(C(F)(F)F)c2)cc1C#Cc1cnc2[nH]ncc2c1 [GZD-824, reference compound]
not fulfilled

Again, but for O=C(Nc1cccc(-c2c[nH]c3ncnc(N4CCOCC4)c23)c1)C1(C(=O)Nc2ccc(F)c(Cl)c2)CC1 [Compound 18]
fulfilled

Similarly, O=C(Nc1cccc(-c2c[nH]c3ncnc(N4CCOCC4)c23)c1)C1(C(=O)Nc2cc(Br)c(F)cc2F)CC1 [Compound 25] ?
fulfilled
